Reported melting point is given for each of the following molecules.
Recorded Metric: melting point

molecule=CCc1cc2oc3cc(-c4ccccc4Cl)c4c(c3c2cc1O)C(=O)NC4=O value="265 to 268 °C"
molecule=O=C(O)c1cccc2ccc(-c3ccccc3)nc12 value="159 to 161 °C"
molecule=CCC(=O)NCCc1c[nH]c2ccc3c(c12)CCCO3 value="106 to 107 °C"
molecule=c1cnc2scc(Nc3ccncc3)c2c1 value="200 to 204 °C"
molecule=COc1ccc(Nc2ccc(Nc3ccnc4cc(-c5cccc([N+](=O)[O-])c5)sc34)cc2)cc1 value="175 to 184 °C"
molecule="Cc1c(C)c2c(c(C)c1O)C(CO)C(C)(C)O2 (configuration not stated)" value="89 to 90 °C"
molecule=Cc1oc(-c2ccccc2)nc1CCc1nc(CCl)co1 value="71 to 72 °C"
molecule=O=[N+]([O-])C=C1NCCN1c1ccc(Cl)nc1 value="201 °C"
molecule=O=C(CC1c2ccccc2Sc2ccccc21)Nc1ccc(C(=O)O)cc1 value="265 to 266 °C"
molecule=COc1ccc(-c2cc3nc(N4CCCCC4)c4ccccc4c3nn2)cc1 value="168 to 169 °C"
molecule=O=C(O)CCC(=O)N(CCCOc1ccc(C(=O)O)cc1)c1ccc(Cl)cc1 value="155 to 158 °C"
molecule=O=c1oc(-c2cccnc2)cc(O)c1SCc1ccccc1 value="183 to 184 °C"
molecule=CN(C)C=Cc1ccncc1C#N value="80 to 83 °C"
molecule="CCCC1CCC(O)(c2ccc(-c3ccccc3)c(F)c2)CC1 (configuration not stated)" value="45 to 72 °C"
molecule=CC(=O)C(Cl)=CSC(C)(C)C value="73 °C"
molecule=CC(C)NC(=O)c1nc(-c2ccccc2)c(-c2ccc(=O)[nH]n2)s1 value="> 250 °C"
molecule=CCOC(=O)c1cc(=O)c2ccc([N+](=O)[O-])c(C)c2o1 value="120 °C"
molecule=O=c1[nH]c2ccc(O)cc2c(=O)n1CCN1CCC(c2c[nH]c3ccccc23)CC1 value="258 °C"
molecule=O=C(NCc1ccc(Br)cc1F)c1ccc(Br)cc1[N+](=O)[O-] value="192 to 193 °C"
molecule=CCCCc1ccc2c(c1)CC(C(=O)OCC)=NN2 value="150 to 152 °C"
molecule=O=[N+]([O-])C=C1NCCN1Cc1ccc(OCC(F)(F)F)nc1 value="132 to 135 °C"
molecule=COC(=O)CCCc1cc2cc(Cl)ccc2n1S(=O)(=O)c1c(C)nn(C)c1C value="125 to 127 °C"
molecule=NC(=O)c1ccc(CCN2CCC(=C3c4ccsc4CCn4ccnc43)CC2)cc1 value="196 °C"
molecule=N#CCOC(=O)c1ccc([N+](=O)[O-])cc1 value="80 to 82 °C"
molecule=Cc1nc(-c2cc(-n3c(=O)cc(C(F)(F)F)n(C)c3=O)ccc2Cl)sc1C value="200 °C"
molecule=C#CCNC(=O)c1cccc(-c2cccc(OCCc3ccc(OC)c(OC)c3)n2)c1 value="142 to 143 °C"
molecule=Cc1ccc(Oc2c(Cl)c(Oc3ccc(C)cc3)c(Oc3ccc(C)cc3)c(C#N)c2C#N)cc1 value="142 to 145 °C"
molecule=CC(=O)c1ccc(=O)[nH]c1C value="196 to 198 °C"
molecule=COc1ccc(Cc2n[nH]c(=O)c3ccccc23)cc1N value="212 to 214 °C"
molecule=Fc1cc2c(Nc3ccc(Cl)c(Br)c3)ncnc2cn1 value="271 to 275 °C"
molecule=O=C(OC1CCN(Cc2ccccc2)CC1)c1cccc(I)c1 value="101 to 103 °C"
molecule=O=C(O)CCCCCN1C(=O)c2ccc(C(=O)O)cc2C1=O value="202 to 204 °C"
molecule=CC1=NN(c2c(Cl)cc(Cl)cc2Cl)C(=O)C1 value="178 to 180 °C"
molecule="CCOC(=O)Cc1ccc(NC(=O)C(COS(C)(=O)=O)NS(=O)(=O)c2ccc(I)cc2)cc1 (racemic)" value="160 to 162 °C"
molecule=CCC(=O)N1C2CCC1CN(Cc1cc3ccccc3o1)C2 value="88 to 90 °C"
molecule=O=C1N(Cc2cn(C(c3ccccc3)(c3ccccc3)c3ccccc3)cn2)CCN1c1cccc(Cl)c1 value="162 to 166 °C"
molecule="CCC(C(=O)N(C)C)n1cc(C)c(-c2ccccc2OC)n1 (configuration not stated)" value="79 to 81 °C"
molecule="CCn1cc(CN(C(=O)C2CCCc3ccc(O)cc32)c2ccc(C(C)C)cc2)cn1 (configuration not stated)" value="169 to 170 °C"
molecule=COC(=O)c1cc2c(C)ccc(C)c2n1OC value="90 to 91 °C"
molecule=CCOC(=O)c1cnn(C)c1C(=O)Nc1ccn2nc(-c3cccc(F)c3)nc2c1 value="246 to 249 °C"
molecule="CC1N=C(c2cccnc2)NC1=O (configuration not stated)" value="238 to 241 °C"
molecule="Cc1cccc(C)c1O[C@@H]1CCNC[C@H]1O (relative stereo)" value="131 to 133 °C"

----------
Recorded Metric: melting point

smiles_code=O=C(O)c1ncn2c1CN=C(c1ccccc1Br)c1cc(F)ccc1-2 recorded_metric="melting point" value="280 to 285 °C"
smiles_code=O=C(O)CC(c1ccc(OCc2ccc3ccccc3n2)cc1)c1ccc(OCc2ccc3ccccc3n2)cc1 recorded_metric="melting point" value="94 to 111 °C"
smiles_code=O=C(c1ccccc1)c1c[nH]c2ncnc(Nc3cccc(CCO)c3)c12 recorded_metric="melting point" value="> 300 °C"
smiles_code=O=[N+]([O-])c1cccc(Nc2nccc(-c3cccnc3)n2)c1 recorded_metric="melting point" value="212 to 213 °C"
smiles_code=CCCCN(C)C(=O)c1ccc(S(=O)(=O)CCCn2c(CCC)nc3c(N)nc(C)c(C)c32)cc1 recorded_metric="melting point" value="127 to 129 °C"

----------
Reported melting point is given for each of the following compounds.
Recorded Metric: melting point

compound="Cc1ccc(S(=O)(=O)n2ccc3c2CC(c2ccccc2)CC3=O)cc1 (stereo unspecified)" recorded_metric="melting point" value="118 to 120 °C"
compound=O=C(O)c1[nH]c(=O)[nH]c(=O)c1[N+](=O)[O-] recorded_metric="melting point" value="> 300 °C"
compound=CCn1nc(C(F)(F)F)c(C)c1O recorded_metric="melting point" value="150 to 152 °C"
compound="NC(=O)c1cc2c(cc1OCC1CCCCC1)CCCCC2N (stereo unspecified)" recorded_metric="melting point" value="170 to 172 °C"
compound="OC1(c2ccc(OCc3ccccc3)c(OCc3ccccc3)c2)CCCN(Cc2ccccc2)C1 (stereo unspecified)" recorded_metric="melting point" value="80 °C"
compound=N#Cc1c(N2CCc3ccccc3CC2)nc(CO)[nH]c1=O recorded_metric="melting point" value="196 to 198 °C"
compound=O=C1OC(=O)c2c(Cl)cc(Cl)cc21 recorded_metric="melting point" value="90 to 94 °C"
compound="CC(O)C(O)Cc1cc(C(N)=O)ccc1C(N)=O (stereo unspecified)" recorded_metric="melting point" value="130 °C"
compound=O=S(=O)(Nc1cc(O)ccc1Oc1ccccc1)C(F)(F)F recorded_metric="melting point" value="97 to 99 °C"
compound=O=C1NC(=O)C(=Cc2ccc(OCCN3CCN(c4ccccn4)CC3)cc2)S1 recorded_metric="melting point" value="158 to 160 °C"
compound=C=C(Br)n1ccnc1[N+](=O)[O-] recorded_metric="melting point" value="80 to 82 °C"
compound=CCCCCCCCCCCCC(=O)c1noc(CCCCCCCCCCCC)c1[N+](=O)[O-] recorded_metric="melting point" value="60 to 62 °C"
compound="O=c1ccn2c(c1O)C(c1ccc(Cl)cc1)OCC2 (stereo unspecified)" recorded_metric="melting point" value="211 to 214 °C"
compound=CN(C)Cc1cccc(NCCCNc2nc(N)nn2C)c1 recorded_metric="melting point" value="101 to 102 °C"
compound="CNC(=O)c1ccc(N2CCN(Cc3cc4c(c(-c5ccccc5)c3)OC(C)C(=O)N4)CC2)cc1 (stereo unspecified)" recorded_metric="melting point" value="185 to 189 °C"
compound="CC(=O)Nc1ccc(Oc2ccc3nc(COc4ccc(CC5SC(=O)NC5=O)cc4)n(C)c3c2)cc1 (stereo unspecified)" recorded_metric="melting point" value="92.2 to 95 °C"
compound=O=C(O)CN1C(=O)c2cccc3c(Sc4ccccc4)ccc(c23)C1=O recorded_metric="melting point" value="250 to 253 °C"
compound=CCn1cc(C(=O)O)c(=O)cc1-c1cc(OC)c(OC)c(OC)c1 recorded_metric="melting point" value="200 to 201 °C"
compound="CC1(C)[C@@H](C=C2CC2)[C@@H]1C(=O)O (relative stereo)" recorded_metric="melting point" value="85 °C"
compound=O=C(O)c1cncc(-c2ccc(Cl)c(C(=O)NCC34CC5CC(CC(C5)C3)C4)c2)c1 recorded_metric="melting point" value="178 to 182 °C"
compound=O=C(C=Cc1ccccc1C(F)(F)F)C=Cc1ccccc1C(F)(F)F recorded_metric="melting point" value="131 to 133 °C"
